system: Candida tropicalis; assay: Fungicidal activity against Candida tropicalis ATCC 750 incubated at 37 degC for 48 hrs by broth dilution method; type: functional; details: ATCC 750, 48 h
Quick list: MFC per entry.
Write the answer as a number in µg/mL, unit excluded.

Mol | MFC [µg/mL]
CC(C)c1ccc(CO)cc1 | 1000
C/C=C\c1ccc(O)c(OC)c1 | 1000
CC(C)c1ccc(OCc2cn(Cc3ccccc3)nn2)cc1 | 1000

Reported MFC, molecule Oc1cccc2cccnc12 : ____
500

* * *

test system: Candida albicans; experiment: microbe, parasite or virus in culture; format: functional; conditions: ATCC 90028, 48 h
Description: Fungicidal activity against Candida albicans ATCC 90028 incubated at 37 degC for 48 hrs by broth dilution method
Quantity Name: MFC (µg/mL)
The figure you give is taken to be in µg/mL; do not add the unit.

Answered examples (3):
Mol | Unit Abbrev | MFC
Oc1cccc2cccnc12 | µg/mL | 500
CC(C)c1ccc(O)cc1 | µg/mL | 500
C/C=C\c1ccc(O)c(OC)c1 | µg/mL | 1000

What value of measured MFC is listed for c1ccc(Cn2cc(COc3cccc4cccnc34)nn2)cc1 ?
62.5

Consider the compound CC(C)c1ccc(CO)cc1 and give its measured MFC.
1000

# MFC lookup, item CC(C)c1ccc(OCc2cn(Cc3ccccc3)nn2)cc1
1000
